- assay.text: forskolin-driven CRE-LacZ activity in PC12 – cell-based, CRE-LacZ reporter, forskolin-stimulated, primary screen (AID 1146);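 further: PC12 cells with 6xCRE LacZ reporter stimulated by forskolin 10 µM; beta-galactosidase reporter signal reflecting CREB driven transcription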
- assay.conditions: luminescence, 4.5 h, called active from +8 up or from −8 down
Activity calls are given as the source filed them.
Respond using exactly one of the listed classes: active, inactive

Would you mind telling me which call this test gave CC1CC/C=C\[C@H]2OC34C=CCN(c5ccc6ccccc6c5)C(=O)[C@H]3N(CCO)C(=O)[C@@H]4C2C(=O)O1 (stereo not given in full) ?
inactive

Would you mind telling me which call this test gave CN1C(=O)C2C=CC(C(O)C=Cc3ccc([N+](=O)[O-])cc3)N(Nc3ccccc3)C2C1=O (stereo not given) ?
inactive

Would you mind telling me which call this test gave COC(=O)c1c(CC[C@@H](CO)NC(=O)N[C@H](Cc2ccccc2)Cn2cc(-c3ccccn3)nn2)oc(C(C)=O)c1C(=O)OC ?
inactive

Would you mind telling me which call this test gave O=C1[C@@]23C=C(Br)[C@H](C[C@@H]2COC3)[C@]12CO2 ?
inactive

Would you mind telling me which call this test gave C[N+](C)(C)CCCC[C@@H]1NC(=O)[C@H]2C[C@@H](C(=O)NCCCCCCNC(=O)CS)[C@@H](c3ccc(O)cc3)N2C1=O ?
inactive

Would you mind telling me which call this test gave C[N+](C)(C)CCCC[C@@H]1NC(=O)[C@@H]2C[C@H](C(=O)NCCCCCCNC(=O)CS)[C@H](c3ccc(O)cc3)N2C1=O ?
inactive

Would you mind telling me which call this test gave O=C(NC1CC1)[C@@H]1c2ccccc2C(=O)N(C2Cc3ccccc3C2)[C@H]1c1ccc(CO)cc1 ?
inactive

Would you mind telling me which call this test gave N#Cc1ccc(C(O)C2C=CC3C(=O)N(c4ccccc4)C(=O)C3N2Nc2ccccc2F)cc1 (stereo not given) ?
inactive

Would you mind telling me which call this test gave COC(=O)C(CC#Cc1ccc2c(c1)[C@]1(C(=O)N2)[C@H](c2ccc(O)cc2)N2[C@H](c3ccccc3)[C@H](c3ccccc3)OC(=O)[C@H]2[C@@H]1C(=O)N1CCN(c2ncccn2)CC1)C(=O)OC ?
inactive

Would you mind telling me which call this test gave Cc1ccc(S[C@]2(C(=O)O)CC(=O)N(C(C)C)[C@@H]2c2ccc(CO)cc2)cc1 ?
inactive

Would you mind telling me which call this test gave O=C1O[C@H](c2ccccc2)[C@H](c2ccccc2)N2[C@H]1[C@@H](C(=O)NC[C@H](O)c1ccccc1)[C@]1(C(=O)Nc3ccc(C#CC4=CCCCC4)cc31)[C@H]2c1ccccc1OCCO ?
inactive

Would you mind telling me which call this test gave COc1ccc(CCNC(=O)[C@@]2(c3ccc([N+](=O)[O-])cc3)CC(=O)N(CC34CC5CC(CC(C5)C3)C4)[C@@H]2c2ccc(CO)cc2I)cc1 ?
inactive

Would you mind telling me which call this test gave CCOC(=O)C1=CCC(c2ccc(F)cc2)N(S(=O)(=O)c2ccc(C)cc2)C1 (stereo not given) ?
inactive

Would you mind telling me which call this test gave CC#CC(=O)Oc1ccc(Br)cc1C=CC(=O)OCC ?
active

Would you mind telling me which call this test gave C=CC[C@]1(C(N)=O)N=C(c2ccc(OCCCO)cc2)O[C@H]1c1ccccc1 ?
inactive

Source of measurements: PubChem BioAssay
